Exercise: for every item that follows, state its recorded inhibition.
experiment-notes: human hepatoma cell viability loss – ATP luminescence, cytotoxicity control for P. falciparum antimalarial project, primary screen (AID 2303);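 also: 0% = DMSO wells and 100% = digitonin-killed cells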
run-conditions: HepG2 viability, 24-48 h, at 10 µM, hits give high values
Give bare numbers, in %.

Use these answered entries as a reference point.
O=C([C@H]1C[C@@H]1c1ccccc1)N(Cc1ccc(-c2ccc(CNCCc3ccccc3)cc2)cc1)C1CCNCC1	36
CCc1ccc(N2C(N)=NC(N)=NC2(C)C)cc1	51
CN(C)c1ccc(CN2CCC(NC(=O)c3ccc(-c4ccc(N(C)C)cc4)s3)CC2)cc1	24
Cc1ccc2c(=O)cc(CCc3cccc(F)c3F)n(CC(=O)N(Cc3ccc(-c4ccc(C(F)(F)F)cc4)cc3)C3CCN(C)CC3)c2n1	49
COc1cc(-c2[nH]c(-c3ccc(OCCN(C)C)cc3)cc2-c2ccncc2)ccc1Cl	3

Hey, can you go through the list below and give me inhibition for every item?
1. CC(C)(C)c1ccc(NC(=O)c2cccc(CN3CCCN(CC4CCCCC4)CC3)c2)cc1
2. O=C(NC1CCCCC1)N(Cc1cccc(-c2ccc(CNCc3ccc4c(c3)OCO4)cc2)c1)C1CCN(Cc2ccccc2)CC1
3. Cn1nc(-c2cccc(CN[C@@H]3CCc4ccc(O)cc43)c2)c2cnc(NC3CCCC3)nc21
4. O=C(Nc1ccc(C(=O)Oc2cccc3ccccc23)cc1)N[C@@H](Cc1ccc(O)cc1)C(=O)NC1CCN(Cc2ccc(O)cc2)C1 (stereo partly specified)
5. Brc1cc(Br)c2c(c1)C(NCCCNC1CCNc3c(Br)cc(Br)cc31)CCN2 (stereo unspecified)

Response line:
1. 97
2. 13
3. 6
4. -1
5. 18

For reference, reported inhibition for CCOCCCn1c(=N)c(C(=O)NC(C)c2ccccc2)cc2c(=O)n3cccc(C)c3nc21 (stereo unspecified) stands at 24

Sourced from PubChem BioAssay
